# system: Ros1 enzyme (Homo sapiens)
# Construct: 0.5 μg/ml Ros1 enzyme
# test: Ros1 enzymatic assay
# Assay type: biochemical
# condition_parameters: Ros1 enzymatic assay; read-out: ROS1 pIC50 (converted)

[
  {
    "molecule": "O=C1NC2(CNC2)Cn2nc(-c3ccncc3)c(-c3ccc(OCc4ccc(C5CC5)cc4)cc3)c21",
    "system": "Ros1 enzyme (Homo sapiens)",
    "IC50": "200 nM"
  },
  {
    "molecule": "CC(C)c1ccc(COc2ccc(-c3c(-c4ccncc4)nn4c3C(=O)NCC4)cc2)cc1",
    "system": "Ros1 enzyme (Homo sapiens)",
    "IC50": "25.1 nM"
  },
  {
    "molecule": "CC(C)c1ccc(COc2ccc(-c3c(-c4ccncc4)nn4c3C(=O)N(CC(=O)O)CC4)cc2)cc1",
    "system": "Ros1 enzyme (Homo sapiens)",
    "IC50": "251 nM"
  },
  {
    "molecule": "CC(C)c1ccc(COc2ccc(-c3c(-c4ccncc4)nn4c3C(=O)N(CCO)CC4)cc2)cc1CCO",
    "system": "Ros1 enzyme (Homo sapiens)",
    "IC50": "20 nM"
  },
  {
    "molecule": "CC(C)c1ccc(C2CCc3cc(-c4c(-c5ccncc5)nn5c4C(=O)NCC5)ccc3O2)cc1 (stereo not shown)",
    "system": "Ros1 enzyme (Homo sapiens)",
    "IC50": "200 nM"
  },
  {
    "molecule": "CNCCc1cc(COc2ccc(-c3c(-c4ccncc4)nn4c3C(=O)N(CCO)CC4)cc2)ccc1C(C)C",
    "system": "Ros1 enzyme (Homo sapiens)",
    "IC50": "25.1 nM"
  },
  {
    "molecule": "CC(C)c1ccc(COc2ccc(-c3c(-c4ccncc4)nn4c3CNC(=O)C4)cc2)cc1",
    "system": "Ros1 enzyme (Homo sapiens)",
    "IC50": "794 nM"
  }
]

====

# system: Ros1 enzyme (Homo sapiens, UniProt P08922)
# Construct: 0.5 μg/ml Ros1 enzyme
# Sequence (P08922 28-2347): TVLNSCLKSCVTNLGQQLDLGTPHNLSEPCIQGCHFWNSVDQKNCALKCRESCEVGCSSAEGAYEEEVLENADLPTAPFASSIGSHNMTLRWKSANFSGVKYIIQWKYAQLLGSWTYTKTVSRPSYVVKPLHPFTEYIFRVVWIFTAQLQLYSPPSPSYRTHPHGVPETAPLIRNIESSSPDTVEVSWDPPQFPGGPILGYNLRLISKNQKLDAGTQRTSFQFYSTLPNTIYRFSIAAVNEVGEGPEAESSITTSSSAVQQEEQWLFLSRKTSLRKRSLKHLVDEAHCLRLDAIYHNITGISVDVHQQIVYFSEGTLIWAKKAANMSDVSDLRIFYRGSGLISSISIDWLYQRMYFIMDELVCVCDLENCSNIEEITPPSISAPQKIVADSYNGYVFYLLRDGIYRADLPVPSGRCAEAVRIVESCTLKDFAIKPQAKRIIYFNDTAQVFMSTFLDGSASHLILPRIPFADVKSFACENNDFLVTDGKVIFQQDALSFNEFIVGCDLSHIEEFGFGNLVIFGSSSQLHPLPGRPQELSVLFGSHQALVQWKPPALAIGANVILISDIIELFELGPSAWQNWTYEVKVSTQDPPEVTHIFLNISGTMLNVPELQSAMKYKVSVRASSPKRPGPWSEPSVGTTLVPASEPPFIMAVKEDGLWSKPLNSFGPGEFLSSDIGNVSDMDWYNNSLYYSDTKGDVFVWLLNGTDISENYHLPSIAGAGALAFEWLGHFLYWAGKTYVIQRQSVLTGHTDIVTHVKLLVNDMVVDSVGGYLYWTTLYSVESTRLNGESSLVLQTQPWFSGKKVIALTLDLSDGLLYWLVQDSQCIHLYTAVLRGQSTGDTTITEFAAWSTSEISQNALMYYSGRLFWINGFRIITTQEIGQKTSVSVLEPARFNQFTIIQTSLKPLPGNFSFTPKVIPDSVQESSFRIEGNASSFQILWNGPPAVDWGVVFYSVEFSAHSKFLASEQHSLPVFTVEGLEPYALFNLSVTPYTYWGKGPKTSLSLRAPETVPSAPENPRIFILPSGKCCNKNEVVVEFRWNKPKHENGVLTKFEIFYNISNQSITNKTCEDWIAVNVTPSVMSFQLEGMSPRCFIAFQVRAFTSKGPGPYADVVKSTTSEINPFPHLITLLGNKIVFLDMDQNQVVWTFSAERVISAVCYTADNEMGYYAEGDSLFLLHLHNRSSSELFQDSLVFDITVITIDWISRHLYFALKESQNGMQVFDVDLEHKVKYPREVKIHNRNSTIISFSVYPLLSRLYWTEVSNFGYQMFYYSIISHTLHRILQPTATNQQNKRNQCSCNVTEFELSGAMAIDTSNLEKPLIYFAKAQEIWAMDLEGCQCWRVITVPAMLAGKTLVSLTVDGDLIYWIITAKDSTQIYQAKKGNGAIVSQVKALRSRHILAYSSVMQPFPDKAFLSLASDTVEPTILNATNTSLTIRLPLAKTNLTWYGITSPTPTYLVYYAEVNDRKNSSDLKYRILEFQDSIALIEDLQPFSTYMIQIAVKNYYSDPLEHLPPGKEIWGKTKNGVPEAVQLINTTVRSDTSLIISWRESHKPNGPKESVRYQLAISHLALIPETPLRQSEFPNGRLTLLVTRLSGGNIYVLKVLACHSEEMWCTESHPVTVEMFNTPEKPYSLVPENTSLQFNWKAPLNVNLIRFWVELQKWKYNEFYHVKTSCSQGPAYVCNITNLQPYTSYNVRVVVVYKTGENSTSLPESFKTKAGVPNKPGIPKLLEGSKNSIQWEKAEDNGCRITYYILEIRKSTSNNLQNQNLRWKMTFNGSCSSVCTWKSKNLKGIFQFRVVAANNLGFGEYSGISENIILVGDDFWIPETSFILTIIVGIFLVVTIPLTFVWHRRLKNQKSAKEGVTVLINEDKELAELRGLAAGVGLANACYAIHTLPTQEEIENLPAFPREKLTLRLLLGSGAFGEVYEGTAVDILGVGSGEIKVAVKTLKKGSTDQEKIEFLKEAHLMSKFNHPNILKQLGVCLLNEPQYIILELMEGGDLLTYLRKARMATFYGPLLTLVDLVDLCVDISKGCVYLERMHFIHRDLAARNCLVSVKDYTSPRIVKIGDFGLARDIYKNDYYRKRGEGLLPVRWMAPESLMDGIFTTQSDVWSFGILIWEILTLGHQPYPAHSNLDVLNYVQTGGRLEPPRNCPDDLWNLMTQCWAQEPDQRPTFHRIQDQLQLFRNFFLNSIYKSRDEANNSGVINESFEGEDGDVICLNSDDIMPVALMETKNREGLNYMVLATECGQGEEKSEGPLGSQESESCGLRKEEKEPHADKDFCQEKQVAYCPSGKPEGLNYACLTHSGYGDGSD
# test: Ros1 enzymatic assay
# Type: biochemical
# condition_parameters: Ros1 enzymatic assay; read-out: ROS1 pIC50 (converted)
experimental_endpoint: IC50 (µM)

[
  {
    "molecule": "CNC(=O)CN1CCn2nc(-c3ccncc3)c(-c3ccc(OCc4ccc(C(C)C)cc4)cc3)c2C1=O",
    "result_number": 0.1
  },
  {
    "molecule": "CC(C)(O)c1ccc(COc2ccc(-c3c(-c4ccncc4)nn4c3C(=O)N(CCO)CC4)cc2)cc1",
    "result_number": 1.26
  },
  {
    "molecule": "CNC(=O)C(Oc1ccc(-c2c(-c3ccncc3)nn3c2C(=O)NCC3)cc1)c1ccc(C(C)C)cc1 (stereo not drawn)",
    "result_number": 0.398
  },
  {
    "molecule": "Cc1ccc(COc2ccc(-c3c(-c4ccncc4)nn4c3C(=O)NCC4)cc2)cc1",
    "result_number": 0.126
  },
  {
    "molecule": "CC(C)c1ccc(COc2ccc(-c3c(-c4ccncc4)nn4c3C(=O)N(CC(O)CO)CC4)cc2)cc1 (stereo not drawn) [Compound 44]",
    "result_number": 0.0501
  },
  {
    "molecule": "CC(C)c1ccc(COc2ccc(-c3c(-c4ccncc4)nn4c3CN(CCO)CC4)cc2)cc1",
    "result_number": 0.158
  },
  {
    "molecule": "CC(C)c1ccc(COc2ccc(-c3c(-c4ccncc4)nn4c3C(=O)N(CC(C)(C)O)CC4)cc2)cc1",
    "result_number": 0.0794
  },
  {
    "molecule": "CC(C)Cc1ccc(COc2ccc(-c3c(-c4ccncc4)nn4c3C(=O)N(CCO)CC4)cc2)cc1",
    "result_number": 0.1
  },
  {
    "molecule": "COc1cc(-c2c(-c3ccncc3)nn3c2C(=O)NCC3)ccc1OCc1ccc(C(C)C)cc1",
    "result_number": 0.00631
  },
  {
    "molecule": "CC(C)c1ccc(COc2ccc(-c3c(-c4ccncc4)nn4c3C(=O)NCC4)cc2)cc1OCCO",
    "result_number": 0.0316
  },
  {
    "molecule": "CC(C)c1ccc(COc2ccc(-c3c(-c4ccncc4)nn4c3C(=O)N(CCO)CC4)cc2)cc1C#N",
    "result_number": 0.0398
  },
  {
    "molecule": "O=C1c2c(-c3ccc(OCc4ccc(C5CC5)nc4)cc3F)c(-c3ccncc3)nn2CCN1CCO",
    "result_number": 0.02
  },
  {
    "molecule": "CNCCN1CCn2nc(-c3ccncc3)c(-c3ccc(OCc4ccc(C(C)C)cc4)cc3)c2C1=O",
    "result_number": 0.0631
  },
  {
    "molecule": "CC(C)c1ccc(COc2ccc(-c3c(-c4ccnc(N)c4)nn4c3C(=O)NCC4)cc2)cc1",
    "result_number": 0.0398
  },
  {
    "molecule": "CC(C)c1ccc(COc2ccc(-c3c(-c4ccncc4)nn4c3CN(CC(=O)NCCO)CC4)cc2)cc1",
    "result_number": 0.1
  }
]
